Data provenance: PubChem BioAssay (NCI)

# GI50 values compiled below
Tested on: MALME-3M melanoma
Test: NCI tumour cell line growth inhibition, 48 h
MEASUREMENT_TYPE: GI50

> print(dat)
                                   compound    result
1         CCN(Cc1ccc(Cl)s1)c1ccc(CO)c(Cl)c1     10 µM
2  COc1ccc2cc(-c3c(-c4ccncc4)nc(-c4ccc(S(C)=O)cc4)n3C)ccc2c1 (stereo not given)   24.5 µM
3  Cc1nc2ccccc2c(/C=C/c2ccc(Br)cc2)c1C(=O)/C=C/c1ccccc1    1.7 µM
4  Cn1cc(-c2nonc2-c2cn(C)c3ccccc23)c2ccccc21   1.06 µM
5  COc1ccc2c(c1)OC1=C(C(=O)OC1)C2c1cc(OC)c2c(c1)OCO2 (stereo not given)  > 100 µM
